Every entry's value here was drawn from the supplement of paper PMC12855868.

B1: library; numbered along this chain (parent)
chain: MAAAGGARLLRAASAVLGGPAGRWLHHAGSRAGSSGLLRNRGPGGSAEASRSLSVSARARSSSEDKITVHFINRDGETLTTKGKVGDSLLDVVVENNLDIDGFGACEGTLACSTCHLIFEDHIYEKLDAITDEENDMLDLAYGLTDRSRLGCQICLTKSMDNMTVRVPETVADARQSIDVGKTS

Variants of: B1
Experiment: scaled log2 fold change in cell abundance, elesclomol vs control (0 = silent mean, 1 = nonsense mean) (scaled log2 ratio); higher = higher viability under elesclomol (loss of FDX1 cuproptosis function);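 further: variant abundance is its share of total variant reads in each endpoint sample, from next-generation sequencing of the integrated ORF PCR-amplified out of genomic DNA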
Details: with ABC1 FDX1 KO; elesclomol 5 nM; glucose 10 mM; 14 days
Each record's class is read off its scaled log2 fold change using these ranges: low class: < -0.3; middle class: ≥ -0.3 and < -0.03; high class: ≥ -0.03

Q) Form field 'band' for G22C
A) low class

Q) Form field 'band' for V167Y
A) high class

Q) Form field 'band' for S88A
A) high class

Q) Form field 'band' for H122Y
A) middle class

Q) Form field 'band' for D87I
A) middle class

Q) Form field 'band' for T68D
A) high class

Q) Form field 'band' for D132M
A) middle class

Q) Form field 'band' for F103L
A) high class

Q) Form field 'band' for H122G
A) low class

Q) Form field 'band' for S50R
A) high class

Q) Form field 'band' for A4F
A) low class

Q) Form field 'band' for A49H
A) high class

Q) Form field 'band' for A21N
A) middle class
